Conditions: in THF, 323.15 K
ATTRIBUTE MEASURED: solubility (mole fraction)
// return just the number, without any unit appended

So for Nc1cc(Cl)nnc1Cl , the logged solubility (mole fraction) turned out to be 0.0752

* * *

Conditions: in methanol, 303.15 K
ATTRIBUTE MEASURED: solubility (mole fraction)

So for Nc1cc(Cl)nnc1Cl , the logged solubility (mole fraction) turned out to be 0.0169

* * *

Conditions: in 1,4-dioxane, 318.15 K
ATTRIBUTE MEASURED: solubility (mole fraction)
// return just the number, without any unit appended

So for Nc1cc(Cl)nnc1Cl , the logged solubility (mole fraction) turned out to be 0.00982

* * *

Conditions: in acetone, 320.65 K
ATTRIBUTE MEASURED: solubility (mole fraction)
// return just the number, without any unit appended

So for Nc1cc(Cl)nnc1Cl , the logged solubility (mole fraction) turned out to be 0.041

* * *

Conditions: in 1,4-dioxane, 308.15 K
ATTRIBUTE MEASURED: solubility (mole fraction)

So for Nc1cc(Cl)nnc1Cl , the logged solubility (mole fraction) turned out to be 0.0066

* * *

Settings: in methanol, 315.65 K
ATTRIBUTE MEASURED: solubility (mole fraction)
// return just the number, without any unit appended

So for Nc1cc(Cl)nnc1Cl , the logged solubility (mole fraction) turned out to be 0.0229

* * *

Conditions: in ethyl acetate, 313.15 K
ATTRIBUTE MEASURED: solubility (mole fraction)

So for Nc1cc(Cl)nnc1Cl , the logged solubility (mole fraction) turned out to be 0.0049

* * *

Settings: in methanol, 310.65 K
ATTRIBUTE MEASURED: solubility (mole fraction)

So for Nc1cc(Cl)nnc1Cl , the logged solubility (mole fraction) turned out to be 0.0201

* * *

Conditions: in methanol, 298.15 K
ATTRIBUTE MEASURED: solubility (mole fraction)
// return just the number, without any unit appended

So for Nc1cc(Cl)nnc1Cl , the logged solubility (mole fraction) turned out to be 0.0153

* * *

Conditions: in ethyl acetate, 295.65 K
ATTRIBUTE MEASURED: solubility (mole fraction)
// return just the number, without any unit appended

So for Nc1cc(Cl)nnc1Cl , the logged solubility (mole fraction) turned out to be 0.00111

* * *

Settings: in 1,4-dioxane, 323.15 K
ATTRIBUTE MEASURED: solubility (mole fraction)
// return just the number, without any unit appended

So for Nc1cc(Cl)nnc1Cl , the logged solubility (mole fraction) turned out to be 0.0121

* * *

Conditions: in acetone, 318.15 K
ATTRIBUTE MEASURED: solubility (mole fraction)
// return just the number, without any unit appended

So for Nc1cc(Cl)nnc1Cl , the logged solubility (mole fraction) turned out to be 0.0393

* * *

Details: in ethyl acetate, 305.65 K
ATTRIBUTE MEASURED: solubility (mole fraction)
// return just the number, without any unit appended

So for Nc1cc(Cl)nnc1Cl , the logged solubility (mole fraction) turned out to be 0.00235

* * *

Settings: in THF, 313.65 K
ATTRIBUTE MEASURED: solubility (mole fraction)
// return just the number, without any unit appended

So for Nc1cc(Cl)nnc1Cl , the logged solubility (mole fraction) turned out to be 0.0648

* * *

Conditions: in dichloromethane, 307.15 K
ATTRIBUTE MEASURED: solubility (mole fraction)
// return just the number, without any unit appended

So for Nc1cc(Cl)nnc1Cl , the logged solubility (mole fraction) turned out to be 0.000811

Ref: BigSolDB 2.1
